Read-out: Interferon-gamma inducible Protein 10 (IP10), CXCL10 (gene 3627)
Test: BSK_hDFCGF_IP10: BioMAP Diversity Plus: hDFCGF Assay for Interferon-gamma inducible Protein 10 (IP10) Biomarker Activity (AID 2283053)
Details: primary human foreskin fibroblasts; actives raise or lower the signal
Activity calls are given as the source filed them. The calls were made as follows: active = hit-call score of the fitted dose curve at least 0.9, where 1 is the maximum; inactive = score below 0.9.
Write down one outcome, taken from t (active), f (inactive)

These solved cases illustrate the format of a correct answer.
[[record]]
smiles_input = "CCCCCCCCCC(=O)O"
answer_label = "f"

[[record]]
smiles_input = "O=c1ccc2ccccc2o1"
answer_label = "f"

[[record]]
smiles_input = "CC(=O)N1CCN(c2ccc(OC[C@H]3CO[C@](Cn4ccnc4)(c4ccc(Cl)cc4Cl)O3)cc2)CC1"
answer_label = "t"


Data request: Test call, this compound: OCCO
Data returned: f

Data request: Recorded test outcome, item CCCC(=O)OCCC(C)C
Data returned: f

Just for reference, PubChem BioAssay (EPA / NIEHS) is where these values come from.
